System: killifish (Oryzias latipes)
Assay: Test Example 1: Test for toxicity to fishes (killifish)
Format: in vivo
Details: TLm48 killifish (a) / concentration of active ingredient in water (b) at green rice leafhopper LC50
Description: Toxicity to killifish (Oryzias latipes) was tested according to the test method for toxicity to fishes described in Notification B No. 2735 of the Ministry of Agriculture and Forestry (Nov. 25, 1965). […] In order to make it clearer that the present compounds have a low toxicity to fishes as well as a high insecticidal activity, a safety coefficient to fishes was calculated from the test results of toxicity to fishes and insecticidal activity. […]
readoutName: Safety coefficient to fishes (a)/(b)
A bare number is all that is needed in reply.

Worked cases, Safety coefficient to fishes (a)/(b) given:
CC1(C)C(C(=O)OC(C#N)c2cccc(Oc3ccc(F)cc3)c2)C1C(Br)C(Cl)(Cl)Br (stereo not drawn) [(B), reference compound]
8
CC1(C)C(C(=O)OC(C#N)c2cccc(Oc3ccccc3)c2)C1C(Br)C(Cl)(Cl)Br (stereo not drawn) [(A), reference compound]
50

Let's switch to this molecule now.
Check killifish (Oryzias latipes) data and give Safety coefficient to fishes (a)/(b) for CC1(C)C(C(=O)OC(C#N)c2cccc(Oc3ccc(Br)cc3)c2)C1C(Br)C(Cl)(Cl)Br (stereo not drawn) . 333

* * *

Assay: Test Example 7: Test for toxicity to fishes (fry carp)
Assay type: in vivo, fry carp (Cyprinus carpio)
Settings: water, read-out: Toxicity to fishes TLm48
readoutName: LC50 at 48 h

Worked cases, LC50 at 48 h given:
CC1(C)[C@H](C(=O)OC(C#N)c2cccc(Oc3ccc(Br)cc3)c2)[C@H]1C(Br)C(Cl)(Cl)Br (relative stereo)
> 1 µg/mL
CC1(C)C(C(=O)OC(C#N)c2cccc(Oc3ccc(Br)cc3)c2)C1C(Br)C(Cl)(Cl)Br (stereo not drawn)
> 1 µg/mL

Let's switch to this compound now.
Determine from records and report LC50 at 48 h for CC1(C)[C@H](C(=O)OC(C#N)c2cccc(Oc3ccc(Br)cc3)c2)[C@@H]1C(Br)C(Cl)(Cl)Br (relative stereo) > 1 µg/mL

* * *

System: killifish (Oryzias latipes)
Test: Test Example 1: Test for toxicity to fishes (killifish)
Type: in vivo
Conditions: TLm48 killifish (a) / concentration of active ingredient in water (b) at green rice leafhopper LC50
Description: Toxicity to killifish (Oryzias latipes) was tested according to the test method for toxicity to fishes described in Notification B No. 2735 of the Ministry of Agriculture and Forestry (Nov. 25, 1965). […] In order to make it clearer that the present compounds have a low toxicity to fishes as well as a high insecticidal activity, a safety coefficient to fishes was calculated from the test results of toxicity to fishes and insecticidal activity. […]
readoutName: Safety coefficient to fishes (a)/(b)

CC1(C)[C@H](C(=O)OC(C#N)c2cccc(Oc3ccc(Br)cc3)c2)[C@H]1C(Br)C(Br)(Br)Br (stereo partly drawn)
> 1667
CC1(C)C(C(=O)OC(C#N)c2cccc(Oc3ccc(Br)cc3)c2)C1C(Br)C(Br)(Br)Br (stereo not drawn)
> 500

Let's switch to this compound now.
Determine from records and report Safety coefficient to fishes (a)/(b) for CC1(C)[C@H](C(=O)OC(C#N)c2cccc(Oc3ccc(Br)cc3)c2)[C@@H]1C(Br)C(Br)(Br)Br (stereo partly drawn) > 263
